assay.remarks: Selectivity index, ratio of IC50 for human AC16 cells to IC50 for human HepG2 cells
Format: toxicity
condition.context: AC16 cells and HepG2 cells, read-out: Ratio IC50
outcome.measure: selectivity ratio

1) C[C@]12CC[C@H](OC(=O)[C@H](Cc3ccccc3)n3[se]c4ccccc4c3=O)C[C@H]1CC[C@@H]1[C@@H]2[C@H](O)C(=O)[C@]2(C)[C@@H](c3ccc(=O)oc3)CC[C@]12O = 9.47
2) Cc1ccc2c(=O)n(CC(=O)O[C@H]3CC[C@@]4(C)[C@H](CC[C@@H]5[C@@H]4[C@H](O)C(=O)[C@]4(C)[C@@H](c6ccc(=O)oc6)CC[C@]54O)C3)[se]c2c1 = 3.51
3) CC[C@H](C)[C@@H](C(=O)O[C@H]1CC[C@@]2(C)[C@H](CC[C@@H]3[C@@H]2[C@H](O)C(=O)[C@]2(C)[C@@H](c4ccc(=O)oc4)CC[C@]32O)C1)n1[se]c2cc(OC)ccc2c1=O = 1.03

* * *

Test system: HepG2
assay.remarks: Antiproliferative activity against human HepG2 cells by MTT assay
Assay type: functional, cell-based
pIC50: −log10 of the molar value.
pIC50 for assorted compounds
outcome.measure: pIC50

1. C[C@]12CC[C@H](OC(=O)[C@H](Cc3ccccc3)n3[se]c4cc(C(F)(F)F)ccc4c3=O)C[C@H]1CC[C@@H]1[C@@H]2[C@H](O)C(=O)[C@]2(C)[C@@H](c3ccc(=O)oc3)CC[C@]12O = 6.58
2. C[C@]12CC[C@H](OC(=O)[C@H](Cc3ccccc3)n3[se]c4ccccc4c3=O)C[C@H]1CC[C@@H]1[C@@H]2[C@H](O)C(=O)[C@]2(C)[C@@H](c3ccc(=O)oc3)CC[C@]12O = 6.47

* * *

assay.remarks: Cytotoxic activity against human AC16 cells assessed as cell detachment from substratum at 1 uM after 24 hrs by phase contrast microscopic method
Type: cell-based
outcome.measure: Activity

1) COc1ccc2c(=O)n([C@@H](Cc3ccccc3)C(=O)O[C@H]3CC[C@@]4(C)[C@H](CC[C@@H]5[C@@H]4[C@H](O)C(=O)[C@]4(C)[C@@H](c6ccc(=O)oc6)CC[C@]54O)C3)[se]c2c1 = Non-Toxic
2) C[C@]12CC[C@H](OC(=O)[C@H](Cc3ccccc3)n3[se]c4cc(C(F)(F)F)ccc4c3=O)C[C@H]1CC[C@@H]1[C@@H]2[C@H](O)C(=O)[C@]2(C)[C@@H](c3ccc(=O)oc3)CC[C@]12O = Non-Toxic

* * *

assay.remarks: Cytotoxic activity against human AC16 cells assessed as cell swelling at 1 uM after 24 hrs by phase contrast microscopic method
Assay type: cell-based
outcome.measure: Activity

1. Cc1ccc2c(=O)n([C@@H](Cc3ccccc3)C(=O)O[C@H]3CC[C@@]4(C)[C@H](CC[C@@H]5[C@@H]4[C@H](O)C(=O)[C@]4(C)[C@@H](c6ccc(=O)oc6)CC[C@]54O)C3)[se]c2c1 = Non-Toxic
2. C[C@]12CC[C@H](OC(=O)[C@H](Cc3ccccc3)n3[se]c4cc(C(F)(F)F)ccc4c3=O)C[C@H]1CC[C@@H]1[C@@H]2[C@H](O)C(=O)[C@]2(C)[C@@H](c3ccc(=O)oc3)CC[C@]12O = Non-Toxic

* * *

assay.remarks: Selectivity index, ratio of IC50 for human AC16 cells to IC50 for human HepG2 cells
Assay type: toxicity
condition.context: AC16 cells and HepG2 cells, read-out: Ratio IC50
outcome.measure: selectivity ratio

1. Cc1ccc2c(=O)n([C@@H](Cc3ccccc3)C(=O)O[C@H]3CC[C@@]4(C)[C@H](CC[C@@H]5[C@@H]4[C@H](O)C(=O)[C@]4(C)[C@@H](c6ccc(=O)oc6)CC[C@]54O)C3)[se]c2c1 = 7.3
2. C[C@]12CC[C@H](O)C[C@H]1CC[C@@H]1[C@@H]2[C@H](O)C(=O)[C@]2(C)[C@@H](c3ccc(=O)oc3)CC[C@]12O = 0.25
3. COc1ccc2c(=O)n([C@@H](Cc3ccccc3)C(=O)O[C@H]3CC[C@@]4(C)[C@H](CC[C@@H]5[C@@H]4[C@H](O)C(=O)[C@]4(C)[C@@H](c6ccc(=O)oc6)CC[C@]54O)C3)[se]c2c1 = 7.21
4. C[C@]12CC[C@H](OC(=O)[C@H](Cc3ccccc3)n3[se]c4cc(C(F)(F)F)ccc4c3=O)C[C@H]1CC[C@@H]1[C@@H]2[C@H](O)C(=O)[C@]2(C)[C@@H](c3ccc(=O)oc3)CC[C@]12O = 16.2

Data provenance is ChEMBL document CHEMBL4265904.
